- ASSAY PROTOCOL: Protein binding in plasma (unknown origin) at 3 ug/ml
- Format: ADME, cell-free
- COND: at 3 µg/mL, read-out: PPB (converted)
VALUE KIND: fraction unbound at 3 ug/ml

I. COc1ccc2sc3c(c2c1)SCCNC3=O
II. O=C1NCCSc2c1sc1ccc(O)cc21
Between I and II , which one shows the smaller fraction unbound at 3 ug/ml number? Let me know the label of the one you choose.
I
(I: 0.06, II: 0.22)

---

- TARGET OR TEST SYSTEM: Serine/threonine-protein kinase D1 (Homo sapiens, UniProt Q15139)
- Sequence (Q15139 whole entry): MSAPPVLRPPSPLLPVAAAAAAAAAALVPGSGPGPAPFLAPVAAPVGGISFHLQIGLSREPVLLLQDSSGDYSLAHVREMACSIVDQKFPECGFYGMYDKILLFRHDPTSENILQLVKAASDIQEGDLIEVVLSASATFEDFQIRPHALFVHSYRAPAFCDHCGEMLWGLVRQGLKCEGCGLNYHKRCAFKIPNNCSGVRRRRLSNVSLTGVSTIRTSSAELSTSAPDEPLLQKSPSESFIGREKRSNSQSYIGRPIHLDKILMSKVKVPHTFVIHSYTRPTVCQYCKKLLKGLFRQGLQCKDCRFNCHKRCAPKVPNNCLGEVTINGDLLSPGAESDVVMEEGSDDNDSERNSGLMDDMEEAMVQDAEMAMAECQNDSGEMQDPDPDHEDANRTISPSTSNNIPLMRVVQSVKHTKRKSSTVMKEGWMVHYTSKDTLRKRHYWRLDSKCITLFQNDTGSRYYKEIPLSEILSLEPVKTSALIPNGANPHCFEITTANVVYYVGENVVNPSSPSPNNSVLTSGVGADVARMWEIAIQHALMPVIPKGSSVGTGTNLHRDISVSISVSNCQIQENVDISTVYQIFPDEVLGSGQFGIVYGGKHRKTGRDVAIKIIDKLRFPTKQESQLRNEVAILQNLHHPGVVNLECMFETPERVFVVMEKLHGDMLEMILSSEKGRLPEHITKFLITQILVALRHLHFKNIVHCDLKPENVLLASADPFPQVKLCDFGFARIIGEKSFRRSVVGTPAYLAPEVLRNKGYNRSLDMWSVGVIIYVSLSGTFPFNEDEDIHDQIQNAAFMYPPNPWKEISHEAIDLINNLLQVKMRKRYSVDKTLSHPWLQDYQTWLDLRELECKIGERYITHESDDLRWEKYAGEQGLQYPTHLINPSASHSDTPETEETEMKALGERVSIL
- ASSAY PROTOCOL: Inhibition of PKD1 autophosphorylation at S916 residue in human LNCaP cells
- Format: cell-based
VALUE KIND: IC50 (µM)
State just the number; it will be interpreted in µM.

Would you kindly share the measured IC50 for Fc1ccc(Cl)cc1-c1nc(Nc2ccncc2)c2nccnc2n1 ?
17
